# Subject Of Test: ER-α in MCF-7 cells (Homo sapiens)
# Sequence (P03372 whole entry): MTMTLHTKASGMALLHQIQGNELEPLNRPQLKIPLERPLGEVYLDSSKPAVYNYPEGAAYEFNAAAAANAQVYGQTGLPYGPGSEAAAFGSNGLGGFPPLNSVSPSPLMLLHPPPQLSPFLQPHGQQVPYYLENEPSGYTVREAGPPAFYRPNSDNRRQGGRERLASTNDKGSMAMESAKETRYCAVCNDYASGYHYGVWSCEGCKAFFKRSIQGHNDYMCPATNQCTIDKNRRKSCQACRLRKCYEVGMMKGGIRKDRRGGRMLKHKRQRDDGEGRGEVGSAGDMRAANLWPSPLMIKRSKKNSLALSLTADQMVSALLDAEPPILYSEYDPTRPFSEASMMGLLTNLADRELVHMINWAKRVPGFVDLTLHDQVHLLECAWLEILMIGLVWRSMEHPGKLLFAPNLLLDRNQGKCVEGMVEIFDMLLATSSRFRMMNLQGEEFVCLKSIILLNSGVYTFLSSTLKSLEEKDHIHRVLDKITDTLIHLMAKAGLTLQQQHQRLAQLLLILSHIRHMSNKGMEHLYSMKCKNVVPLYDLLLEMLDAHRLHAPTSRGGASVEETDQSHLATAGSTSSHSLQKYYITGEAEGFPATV
# Experimental Protocol: Breast cancer cell ER-α in cell western assay (SP1)
# Type: cell-based
# Parameters: endogenous in cells; host or cells: MCF-7
# Condition Parameters: SP1 antibody, 4 or 24 hr post compound addition, read-out: ER-α In Cell Western Assay (SP1) IC50
Readout Kind: DC50

CC/C(=C(/c1ccc(/C=C/C(=O)O)cc1)c1ccc2[nH]ncc2c1)c1cnnn1C : > 100 nM
O=C(O)/C=C/c1ccc(/C(=C(/CCF)c2ccncc2Cl)c2ccc3[nH]ncc3c2)cc1 : ≤ 100 nM
CCCS(=O)(=O)NC(=O)/C=C/c1ccc(/C(=C(/CC)c2ccc(F)cc2Cl)c2ccc3[nH]ncc3c2)cc1 : ≤ 100 nM
CC/C(=C(/c1ccc(CCC(=O)O)cc1)c1ccc2[nH]ncc2c1)c1ccccc1 : ≤ 100 nM
CC/C(=C(/c1ccc(/C=C/c2noc(=S)[nH]2)cc1)c1ccc2[nH]ncc2c1)c1ccccc1 : ≤ 100 nM
CC/C(=C(/c1ccc(/C=C/C(=O)O)cc1)c1cccc2[nH]ncc12)c1ccccc1F : ≤ 100 nM
CC/C(=C(/c1ccc(/C=C/C(=O)O)cc1)c1ccc2[nH]ncc2c1)c1ccc(C(=O)N(C)C)cc1F : > 100 nM
CC/C(=C(/c1ccc(/C=C/C(=O)O)cc1)c1cccc2[nH]ncc12)c1ccccc1C : ≤ 100 nM
CCOC(=O)n1ncc2cc(/C(=C(\CC)c3ccc(F)cc3Cl)c3ccc(/C=C/C(=O)O)cc3)ccc21 : ≤ 100 nM
CC/C(=C(/c1ccc(/C=C/C(=O)O)cc1)c1ccc2[nH]ncc2c1)c1ccc2cnn(C)c2c1 : ≤ 100 nM
CC/C(=C(/c1ccc(/C=C/C(=O)O)cc1)c1ccn2cnnc2c1)c1ccccc1 : > 100 nM
CC/C(=C(/c1ccc(/C=C/C(=O)O)cc1)c1cc(F)c2[nH]ncc2c1)c1ccncc1Cl : ≤ 100 nM
CC/C(=C(/c1ccc(/C=C/C(=O)O)cc1)c1ccc2[nH]ncc2c1)c1ccc(C)c(Oc2ccccc2)c1 : ≤ 100 nM
CC/C(=C(/c1ccc(/C=C/C(=O)NOC)cc1)c1ccc2[nH]ncc2c1)c1ccc(F)cc1Cl : ≤ 100 nM
